Test: Cochleate formation by light microscopy
Format: physicochemical
Parameters: key: or above (E!); excellent (E); good (G); poor (P); none (N)
Conditions: POPG:TOCL 75:25 (anionic lipids only); 1:10 lipid to polymer ratio
readout_label: Cochleate formation

compound	endpoint_value
CCCCCCCCCCCC(=O)NC(CCCCN)C(=O)NCCCCCCCC(=O)NC(CCCCN)C(=O)NCCCCCCCC(=O)NC(CCCCN)C(=O)NCCCCCCCC(=O)NC(CCCCN)C(=O)NCCCCCCCC(=O)NC(CCCCN)C(=O)NCCCCCCCC(=O)NC(CCCCN)C(=O)NCCCCCCCC(=O)NC(CCCCN)C(=O)NCCCCCCCC(=O)NC(CCCCN)C(=O)NCCCCCCCC(=O)NC(CCCCN)C(=O)NCCCCCCCC(=O)NC(CCCCN)C(N)=O (stereo not drawn) [C12K-9α8, C12K(NC8K)9NH2]	P
CCCCCCCCCCCC(=O)N[C@@H](CCCCN)C(=O)NCCCCCCCC(=O)N[C@@H](CCCCN)C(=O)NCCCCCCCC(=O)N[C@@H](CCCCN)C(=O)NCCCCCCCC(=O)N[C@@H](CCCCN)C(=O)NCCCCCCCC(=O)N[C@@H](CCCCN)C(=O)NCCCCCCCC(=O)N[C@@H](CCCCN)C(N)=O [C12K-5α8, C12K(NC8K)5NH2]	P
CCCCCCCCCCCC(=O)NC(CCCCN)C(=O)NCCCCCCCC(=O)NC(CCCCN)C(=O)NCCCCCCCC(=O)NC(CCCCN)C(=O)NCCCCCCCC(=O)NC(CCCCN)C(=O)NCCCCCCCC(=O)NC(CCCCN)C(=O)NCCCCCCCC(=O)NC(CCCCN)C(=O)NCCCCCCCC(=O)NC(CCCCN)C(=O)NCCCCCCCC(=O)NC(CCCCN)C(=O)NCCCCCCCC(=O)NC(CCCCN)C(=O)NCCCCCCCC(=O)NC(CCCCN)C(=O)NCCCCCCCC(=O)NC(CCCCN)C(=O)NCCCCCCCC(=O)NC(CCCCN)C(N)=O (stereo not drawn) [C12K-11α8, C12K(NC8K)11NH2]	N
CCCCCCCCCCCC(=O)NC(CCCCN)C(=O)NCCCCCCCC(=O)NC(CCCCN)C(=O)NCCCCCCCC(=O)NC(CCCCN)C(=O)NCCCCCCCC(=O)NC(CCCCN)C(=O)NCCCCCCCC(=O)NC(CCCCN)C(=O)NCCCCCCCC(=O)NC(CCCCN)C(=O)NCCCCCCCC(=O)NC(CCCCN)C(=O)NCCCCCCCC(=O)NC(CCCCN)C(N)=O (stereo not drawn) [C12K-7α8, C12K(NC8K)7NH2]	G
